meta.source: the supplement of paper PMC3545927

- systemName: furin, P09958;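 note: purified furin at 1:10 enzyme:substrate in 50 mM HEPES pH 7.5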
- Sequence (P09958 whole entry): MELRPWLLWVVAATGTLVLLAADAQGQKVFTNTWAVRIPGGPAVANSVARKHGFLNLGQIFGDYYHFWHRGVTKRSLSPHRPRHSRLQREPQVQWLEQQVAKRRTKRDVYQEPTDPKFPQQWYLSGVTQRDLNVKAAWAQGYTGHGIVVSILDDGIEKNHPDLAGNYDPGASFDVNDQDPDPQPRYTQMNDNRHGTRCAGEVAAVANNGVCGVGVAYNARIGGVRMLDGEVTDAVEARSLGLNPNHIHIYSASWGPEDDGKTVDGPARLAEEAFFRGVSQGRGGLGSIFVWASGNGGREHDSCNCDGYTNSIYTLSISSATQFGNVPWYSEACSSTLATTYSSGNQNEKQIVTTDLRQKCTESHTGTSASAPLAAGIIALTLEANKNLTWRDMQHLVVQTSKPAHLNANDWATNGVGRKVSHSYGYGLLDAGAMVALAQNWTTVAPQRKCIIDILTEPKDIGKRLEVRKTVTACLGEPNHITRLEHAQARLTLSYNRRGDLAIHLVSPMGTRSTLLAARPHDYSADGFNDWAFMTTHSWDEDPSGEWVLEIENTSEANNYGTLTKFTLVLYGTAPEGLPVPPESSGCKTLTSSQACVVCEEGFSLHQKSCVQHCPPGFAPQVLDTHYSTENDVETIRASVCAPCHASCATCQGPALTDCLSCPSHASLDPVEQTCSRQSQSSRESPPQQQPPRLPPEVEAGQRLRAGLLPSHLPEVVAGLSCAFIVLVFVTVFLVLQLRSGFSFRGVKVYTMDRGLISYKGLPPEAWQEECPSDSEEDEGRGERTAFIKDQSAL
- testProtocol: furin cleavage Z-score vs untreated control; higher = more cleavage, active = 3.5 or more, inactive = 1 or less, 8 variable residues between constant flanks
- testSettings: 30 min
The list shows a part of the results. How many sequences the whole screen found active is unknown.
readoutKind: furin cleavage Z-score
Give bare numbers.

As a guide, the following entries are already answered.
> print(dat)
                      seqstring             readoutkind  resultvalue
1  CARGDRFSEDAGNASASA [FS-2931]  furin cleavage Z-score        -1.76
2  CAVALRRRRHAGNASASA [FS-1577]  furin cleavage Z-score          9.5
3  CARAPRSVGGAGNASASA [FS-1886]  furin cleavage Z-score        0.769
4   CAYMNRRRRHAGNASASA [FS-320]  furin cleavage Z-score         6.26
5    CAGHTVSGFVAGNASASA [HC357]  furin cleavage Z-score       -0.897
6   CAETMRRRRHAGNASASA [FS-928]  furin cleavage Z-score           10

Provide the reported furin cleavage Z-score of each entry below, same order.
1. CARGRRKDDYAGNASASA [FS-2417]
2. CARHTPVNSWAGNASASA [HC1571]
3. CAPPLEGEPGAGNASASA [HC1355]
4. CARHTRSAEDAGNASASA [FS-2681]
5. CATTPCSGFWAGNASASA [HC1907]
6. CAAILDMIAGAGNASASA [HC332]
7. CARHTRSIFWAGNASASA [FS-2147]

Key:
1. 0.301
2. 0.598
3. 0.522
4. 9.18
5. -0.967
6. -0.84
7. 7.05

Hey, quick one: what's furin cleavage Z-score for each of these?
1. CAPISRRRRHAGNASASA [FS-69]
2. CATTPCSGMWAGNASASA [HC1906]

Key:
10.2
-1.44
